species on record: Homo sapiens; assay: Selectivity for 5HT1A over adrenergic alpha-1 receptor
The entries below come with measured Ratio Ki values attached.
measurement.name: Ratio Ki

* COc1ccccc1N1CCN(CCn2c(=O)[nH]c3[nH]c(-c4ccccc4Cl)cc3c2=O)CC1 | 8.8
* O=c1[nH]c2[nH]c(-c3ccccc3)cc2c(=O)n1CCN1CCN(c2ccccc2Cl)CC1 | 327
* COc1ccccc1N1CCN(CCn2c(=O)[nH]c3[nH]c(-c4ccc(C)cc4)cc3c2=O)CC1 | 67
* O=c1[nH]c2[nH]c(-c3ccc(Cl)cc3)cc2c(=O)n1CCN1CCN(c2ccccc2Cl)CC1 | 573
* COc1ccccc1-c1cc2c(=O)n(CCN3CCN(c4ccccc4Cl)CC3)c(=O)[nH]c2[nH]1 | 310
* Cc1ccccc1-c1cc2c(=O)n(CCN3CCN(c4ccccc4Cl)CC3)c(=O)[nH]c2[nH]1 | 518
* COc1ccccc1-c1cc2c(=O)n(CCN3CCN(c4ccccc4OC)CC3)c(=O)[nH]c2[nH]1 | 97
* O=c1[nH]c2[nH]c(-c3ccccc3Cl)cc2c(=O)n1CCN1CCN(c2ccccc2Cl)CC1 | 10
* COc1ccccc1N1CCN(CCn2c(=O)[nH]c3[nH]c(-c4ccccc4C)cc3c2=O)CC1 | 248
* Cc1ccc(-c2cc3c(=O)n(CCN4CCN(c5ccccc5Cl)CC4)c(=O)[nH]c3[nH]2)cc1 | 155
* COc1ccc(-c2cc3c(=O)n(CCN4CCN(c5ccccc5Cl)CC4)c(=O)[nH]c3[nH]2)cc1 | 65
* COc1ccc(-c2cc3c(=O)n(CCN4CCN(c5ccccc5OC)CC4)c(=O)[nH]c3[nH]2)cc1 | 21
* COc1ccccc1N1CCN(CCn2c(=O)[nH]c3[nH]c(-c4ccccc4)cc3c2=O)CC1 | 61
* COc1ccccc1N1CCN(CCn2c(=O)[nH]c3[nH]c(-c4ccc(Cl)cc4)cc3c2=O)CC1 | 98

----------
The entries below come with measured pKi values attached.
target: 5-hydroxytryptamine receptor 1A (Homo sapiens)
Sequence (P08908 whole entry): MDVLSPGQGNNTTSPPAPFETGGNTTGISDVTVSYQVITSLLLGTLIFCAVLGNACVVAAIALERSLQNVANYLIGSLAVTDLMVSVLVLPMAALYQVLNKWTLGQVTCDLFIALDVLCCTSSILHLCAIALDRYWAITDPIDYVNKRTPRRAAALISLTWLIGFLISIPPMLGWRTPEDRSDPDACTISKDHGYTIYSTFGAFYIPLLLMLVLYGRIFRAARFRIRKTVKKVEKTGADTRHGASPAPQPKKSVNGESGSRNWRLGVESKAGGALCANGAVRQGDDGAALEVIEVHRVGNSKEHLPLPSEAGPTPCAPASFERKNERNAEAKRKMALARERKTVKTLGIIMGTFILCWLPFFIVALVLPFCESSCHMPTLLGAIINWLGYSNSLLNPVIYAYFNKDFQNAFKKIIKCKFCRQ
pKi: −log10 of the molar value.
measurement.name: pKi

* COc1ccccc1N1CCN(CCn2c(=O)[nH]c3[nH]c(-c4ccccc4)cc3c2=O)CC1 | 6.91
* O=c1[nH]c2[nH]c(-c3ccccc3)cc2c(=O)n1CCN1CCN(c2ccccc2Cl)CC1 | 5.81
* COc1ccccc1N1CCN(CCn2c(=O)[nH]c3[nH]c(-c4ccc(Cl)cc4)cc3c2=O)CC1 | 6.40
* Cc1ccccc1-c1cc2c(=O)n(CCN3CCN(c4ccccc4Cl)CC3)c(=O)[nH]c2[nH]1 | 5.84

----------
molecular target: UniProt P08908
measurement.name: Ki (nM)

- COc1ccc(-c2cc3c(=O)n(CCN4CCN(c5ccccc5OC)CC4)c(=O)[nH]c3[nH]2)cc1: 113
- Cc1ccc(-c2cc3c(=O)n(CCN4CCN(c5ccccc5Cl)CC4)c(=O)[nH]c3[nH]2)cc1: 1810
- COc1ccc(-c2cc3c(=O)n(CCN4CCN(c5ccccc5Cl)CC4)c(=O)[nH]c3[nH]2)cc1: 1070

----------
biological target: D(1A) dopamine receptor (Homo sapiens, UniProt P21728); assay: Binding affinity to dopamine D1 receptor
Sequence (P21728 whole entry): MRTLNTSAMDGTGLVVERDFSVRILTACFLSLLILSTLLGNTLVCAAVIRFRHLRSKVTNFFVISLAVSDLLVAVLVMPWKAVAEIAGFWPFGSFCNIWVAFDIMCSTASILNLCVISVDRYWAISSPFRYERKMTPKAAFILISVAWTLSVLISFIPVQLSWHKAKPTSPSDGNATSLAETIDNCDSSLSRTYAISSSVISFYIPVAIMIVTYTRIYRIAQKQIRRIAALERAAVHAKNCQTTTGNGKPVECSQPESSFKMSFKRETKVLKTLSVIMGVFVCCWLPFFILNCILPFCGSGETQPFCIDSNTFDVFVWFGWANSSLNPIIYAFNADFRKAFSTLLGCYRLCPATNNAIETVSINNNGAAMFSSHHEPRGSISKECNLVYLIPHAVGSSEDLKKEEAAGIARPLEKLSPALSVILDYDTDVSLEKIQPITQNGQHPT
pKi: −log10 of the molar value.
measurement.name: pKi

• Cc1ccc(-c2cc3c(=O)n(CCN4CCN(c5ccccc5Cl)CC4)c(=O)[nH]c3[nH]2)cc1 = 6.41
• O=c1[nH]c2[nH]c(-c3ccc(Cl)cc3)cc2c(=O)n1CCN1CCN(c2ccccc2Cl)CC1 = 6.26
